Attribution: the MegaScale stability set (Tsuboyama et al. 2023)

B1: EEHEE_rd4_0003 (parent)
chain: KKVTINGVEIKFNNPEEAVKFALELAKRLNLRIEFHGDQIKIE

variants of: B1; test: folding stability dG (cDNA display proteolysis); higher = more stable; conditions: PBS, room temperature
measuredQuantity: folding stability dG (kcal/mol)
Give your result in kcal/mol as a bare value.

Data request, read-out folding stability dG, for K20F
2.51

Quick one: H36V
2.89

Param item: L29C
3.71

Entry to check: V3S
1.46

Let us now turn to L25G
0.776

How about this variant: E17S
2.39

Now the same for N13M
2.66

Continue with E24P
1.47

Consider next the variant N30K in the same way.
2.55

Again, but for K20L
2.49

Moving on to the next variant: R32P
1.71

Request: N13R
2.84

What about G37F ?
2.48

Another: I42S
1.47

Consider next the variant E24G in the same way.
2.28

Follow-up entry: K41R
2.8

// same read-out, input: K1R
2.79

Same read-out for I42P ?
1.27

Also check V3Y
2.26

Query E43F next
3.59

Note, next up: K1D
2.23

Query G7D next
1.89

One more variant: E9Q
2.46

Now the variant N14G
2.22

Consider next the variant A22H in the same way.
1.32

Queued: A18S
1.93

Similarly, R28D ?
1.69

Another: I10P
1.19

Could you do the same for F21C , please?
3.19

Then N30G ?
2.65

Next entry: V19R
2.5

What about this variant? D38V
2.23

And G7V ?
2.45

Then what about the variant F35R ?
1.8

What about this variant? E34H
2.42

Consider next the variant P15S in the same way.
2.77

Now give it for K2F too.
2.8

Next variant up: E34R
2.58

Next up: Q39T
3.22

Okay, and L23D ?
1.47

Moving on to E34L
2.49

Here is the next variant: E9V
2.94

Now consider I42H and answer again.
1.63

// next record E9R
2.36

Ok, now I33Q
1.08

// next record E43T
3.27

Repeat with K27N
2.32

Moving on to L25A
1.9

Try this variant next: E24H
2.23

And L29N ?
1.72

One more variant: N30I
2.34

Another: H36K
2.53

Then what about the variant E16K ?
2.48

Would you kindly repeat that for P15A ?
2.78

Please answer likewise for E43G
2.8

Another variant to check: K11G
2.28

Same read-out for I5M ?
2.07

Item: Q39W
3.07

Repeat for the following variant: A26D
0.982

Please give the result for K27A too.
2.72

Another: A18Y
2.36

Next variant up: I33K
0.882

# iterate: H36R
2.52

What do we get for A22V ?
2.74

Now consider N14Y and answer again.
2.41

Try the variant V3G
1.85

Next variant: I40N
1.44

And for E24I ?
2.49

Can you handle N13K next?
2.8

Another variant to look at: E17W
2.84

Next variant: K27Y
2.44

Proceed to D38F
2.7

Item: I40G
1.37

# repeat for E17C
4.22

Continue with R28C
3.28

Lookup N13H
2.45

Moving on to E16W
2.99

Would you mind doing F21V as well?
1.74

Try A22L next.
2.98

Next entry: Q39V
3.18

Follow-up item: L31E
0.917
